# measurementProtocol: basal 3T3-L1 adipocyte mitochondrial potential changes, profiling panel, cell-based, JC-1 fluorescence, 3T3-L1 adipocytes, 24 h, 100 nL compound (AID 1168); note: test concentration not given here
# details: JC-1 mitochondrial fluorescence, higher = more signal, called active from +8 up or from −8 down
Binning scheme for z-score: low (below -0.4), medium (-0.4 to below 0.6), high (0.6 or more)

Class (by measured z-score) for O=C1NC(=O)C2C1C=CC(C(O)c1ccccc1)N2Nc1ccc(Cl)cc1Cl (stereo not given)
low

Class (by measured z-score) for C=CC[C@]1(C(=O)N2CCCCC2)N=C(c2ccc(OCCCO)cc2)O[C@H]1c1ccccc1
medium

Class (by measured z-score) for C#CCN(CC=C(C)C)[C@H](CO)c1ccccc1
medium

Class (by measured z-score) for C=C(C)C1C(=C)CN([C@H](CO)c2ccccc2)C1=O (stereo not given in full)
medium

Class (by measured z-score) for COCCCN1C(=O)[C@@]2(Cc3ccccc31)c1ccccc1C(=O)N(Cc1ccccc1C(F)(F)F)[C@H]2c1ccc(CO)cc1
high

Class (by measured z-score) for CN1C(=O)C2C=CC(C(O)Cc3ccccc3)N(Nc3ccccc3)C2C1=O (stereo not given)
low

Class (by measured z-score) for C=CCOC(=O)[C@H]1[C@@H]2C(=O)O[C@@H](c3ccccc3)[C@@H](c3ccccc3)N2[C@@H](c2ccc(OCCOC(=O)[C@H]3C[C@H]4C(=O)N5CCC[C@H]5C(=O)N4[C@H]3c3ccc(O)cc3)cc2)[C@]12C(=O)Nc1ccccc12
high

Class (by measured z-score) for COC(=O)[C@@]1(Cc2ccc(OC)cc2)[C@H]2c3cc(C(=O)N4CCCC4)n(Cc4ccccc4)c3C[C@H]2CN1C(=O)c1ccccc1
low

Class (by measured z-score) for CC(C)(C)OC(=O)CC[C@@]12N=C(c3ccc(OCCCO)cc3)O[C@@H]1c1ccccc1N(CCS(=O)(=O)c1ccccc1)C2=O
high

Class (by measured z-score) for [N-]=[N+]=Nc1ccccc1[C@H]1OC(c2ccc(OCCCO)cc2)=N[C@@]1(Cc1ccccc1)C(=O)O
medium

Class (by measured z-score) for COc1ccc([C@H]2OC[C@@H]3CC4(CC=CC4)C(=O)N32)cc1
medium

Class (by measured z-score) for COc1ccc(C(O)C2C=CC3C(=O)N(c4ccccc4)C(=O)C3N2Nc2ccccc2F)cc1OCc1ccccc1 (stereo not given)
low
